Tested on: Staphylococcus aureus
Procedure text: Antibacterial activity against methicillin-resistant Staphylococcus aureus isolate 7972 after 18 hrs by broth microdilution method
Format: functional
Condition info: isolate 7972, 18 h
Property: MIC90

| Smiles representation | Property | Experimental value |
| --- | --- | --- |
| CC(C)(C)c1ccc(CN2CCCN(CCc3cc(-c4cccs4)nc(-c4ccncc4)n3)CC2)cc1 | MIC90 | 2 µg/mL |
| COc1cccc(OC)c1C(=O)N[C@@H]1C(=O)N2[C@@H]1SC(C)(C)[C@@H]2C(=O)O | MIC90 | > 64 µg/mL |
| CC(C)c1ccc(CN2CCCN(CCc3cc(-c4cccs4)nc(-c4ccncc4)n3)CC2)cc1 | MIC90 | 2 µg/mL |
| CN[C@H](CC(C)C)C(=O)N[C@H]1C(=O)N[C@@H](CC(N)=O)C(=O)N[C@H]2C(=O)N[C@H]3C(=O)N[C@H](C(=O)N[C@H](C(=O)O)c4cc(O)cc(O)c4-c4cc3ccc4O)[C@H](O)c3ccc(c(Cl)c3)Oc3cc2cc(c3O[C@@H]2O[C@H](CO)[C@@H](O)[C@H](O)[C@H]2O[C@H]2C[C@](C)(N)[C@H](O)[C@H](C)O2)Oc2ccc(cc2Cl)[C@H]1O | MIC90 | 1 µg/mL |
| FC(F)(F)c1ccc(CN2CCCN(CCc3cc(-c4cccs4)nc(-c4ccncc4)n3)CC2)cc1 | MIC90 | 4 µg/mL |
